Measurement Target: BaF3 BRAF-KIAA1549 fusion cells (Homo sapiens)
Construct: The BRAF-KIAA1549 fusion mutant was subcloned into pMXs-IRES-Blasticidin (RTV-016, Cell Biolabs, San Diego, CA); fused on or other part: Q9HCM3 (UPF0606 protein KIAA1549)
Sequence (P15056 whole entry, change not shown, the tested form may be a part): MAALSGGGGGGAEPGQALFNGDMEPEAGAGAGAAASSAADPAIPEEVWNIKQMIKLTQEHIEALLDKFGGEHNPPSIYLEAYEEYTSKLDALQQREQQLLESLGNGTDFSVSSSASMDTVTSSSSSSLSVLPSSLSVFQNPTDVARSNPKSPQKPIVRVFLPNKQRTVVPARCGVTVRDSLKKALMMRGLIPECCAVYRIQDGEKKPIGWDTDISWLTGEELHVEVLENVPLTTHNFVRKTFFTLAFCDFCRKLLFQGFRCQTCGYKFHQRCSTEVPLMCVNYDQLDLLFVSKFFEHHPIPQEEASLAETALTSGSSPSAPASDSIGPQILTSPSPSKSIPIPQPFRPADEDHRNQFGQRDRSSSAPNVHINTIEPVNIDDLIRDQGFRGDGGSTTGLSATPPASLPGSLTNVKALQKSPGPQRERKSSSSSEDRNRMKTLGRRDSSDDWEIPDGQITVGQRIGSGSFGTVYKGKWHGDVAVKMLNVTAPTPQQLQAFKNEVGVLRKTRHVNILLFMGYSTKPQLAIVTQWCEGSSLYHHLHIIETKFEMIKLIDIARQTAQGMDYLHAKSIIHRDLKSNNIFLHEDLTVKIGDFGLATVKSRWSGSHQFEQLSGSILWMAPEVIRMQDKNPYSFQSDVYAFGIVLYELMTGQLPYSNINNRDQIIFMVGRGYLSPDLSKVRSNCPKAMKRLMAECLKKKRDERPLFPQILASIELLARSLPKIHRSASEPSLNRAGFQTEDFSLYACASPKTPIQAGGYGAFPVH
Experiment Description: BaF3 BRAF-KIAA1549 fusion cell proliferation assay (CellTiterGlo)
Assay type: cell-based
Condition Set: 96 hours incubation, potency code
Quantity Name: GI50

These recorded examples may help you get a feel for the data.
Compound: Cc1ncc(C(=O)Nc2cccc(C(F)(F)F)c2)cc1Nc1ncccc1-c1ncnc2[nH]cnc12
Result: 20 to 100 nM

Compound: COc1cnc(C(=O)Nc2ccc(C)c(Nc3ncccc3-c3ncnc4[nH]cnc34)c2)cc1C(F)(F)F
Result: 20 to 100 nM

Compound: Cc1ccc(NC(=O)c2nccc(C(F)(F)F)c2F)cc1Nc1ncccc1-c1ncnc2[nH]cnc12
Result: < 20 nM

Compound: Cc1ccc(NC(=O)CC2CCCC(C(F)(F)F)C2)cc1Nc1ncccc1-c1ncnc2[nH]cnc12 (stereo not shown)
Result: < 20 nM

Data request, read-out GI50, for Cc1ccc(NC(=O)c2cc(C(F)(F)F)ccn2)cc1Nc1nccnc1-c1ncnc2[nH]cnc12
20 to 100 nM

Can you handle Cc1c(F)cc(NC(=O)c2ccnc(C3(F)CC3)c2)cc1Nc1ncccc1-c1ncnc2[nH]cnc12 next?
< 20 nM

Can you handle Cc1ccc(NC(=O)c2cc(C3CC3)c(Cl)cn2)cc1Nc1ncccc1-c1ncnc2[nH]cnc12 next?
≥ 500 nM
